# target-or-system: NAMPT (Homo sapiens, UniProt P43490)
# Sequence (P43490 whole entry): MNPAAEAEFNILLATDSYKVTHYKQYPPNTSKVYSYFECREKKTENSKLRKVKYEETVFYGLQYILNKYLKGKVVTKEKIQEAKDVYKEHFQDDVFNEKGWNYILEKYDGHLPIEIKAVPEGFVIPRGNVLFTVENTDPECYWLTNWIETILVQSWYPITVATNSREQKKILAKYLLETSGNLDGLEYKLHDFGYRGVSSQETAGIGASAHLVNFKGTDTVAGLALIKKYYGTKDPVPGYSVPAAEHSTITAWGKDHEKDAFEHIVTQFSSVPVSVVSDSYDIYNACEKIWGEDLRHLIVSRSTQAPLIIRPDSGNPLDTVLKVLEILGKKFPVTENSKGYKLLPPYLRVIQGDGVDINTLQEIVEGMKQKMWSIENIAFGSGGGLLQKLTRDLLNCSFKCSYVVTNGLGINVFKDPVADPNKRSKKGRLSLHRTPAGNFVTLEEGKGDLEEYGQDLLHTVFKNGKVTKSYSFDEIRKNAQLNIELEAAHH
# assay-notes: Time-Resolved Fluorescence Resonance Energy Transfer (TR-FRET) Binding Assay of NAMPT
# conditions: 6.8 nM NAMPT, 200 nM probe, equilibrated 3 hours, no substrates
With a cut-off of 20 nM, any IC50 strictly below it is called rule met; any IC50 meeting it or above is called rule not met.

Task: Bench note: check whether COCCOCC(=O)N1CC=C(c2ccc(NC(=O)N3CC(c4cccnc4)C3)cc2)CC1 shows IC50 below 20 nM
Output: rule not met

Task: Bench note: check whether CC(C)(C)CC(=O)N1CC=C(c2ccc(NC(=O)N3CC(c4cccnc4)C3)cc2)CC1 shows IC50 below 20 nM
Output: rule met

Task: Bench note: check whether O=C(CC1CCOCC1)N1CC[C@@H](Oc2ccc(NC(=O)N3CC(c4cccnc4)C3)cc2)C1 shows IC50 below 20 nM
Output: rule not met

Task: Bench note: check whether CC(C)C(=O)N1CC[C@@H](Oc2ccc(NC(=O)N3CC(c4cccnc4)C3)cc2)C1 shows IC50 below 20 nM
Output: rule not met

Task: Bench note: check whether CC1(C(=O)N2CCC(c3ccc(NC(=O)N4CC(c5cccnc5)C4)cc3)CC2)CC1 shows IC50 below 20 nM
Output: rule met

Task: Bench note: check whether O=C(Nc1ccc(C2CCN(C(=O)c3ccoc3)CC2)cc1)N1CC(c2cccnc2)C1 shows IC50 below 20 nM
Output: rule met

Task: Bench note: check whether O=C(CC1C[C@@H]2CC[C@H]1C2)N1CC(Oc2ccc(NC(=O)N3CC(c4cccnc4)C3)cc2)C1 (some centres unmarked) shows IC50 below 20 nM
Output: rule met

Task: Bench note: check whether CC1(C(=O)N2CC[C@@H](Oc3ccc(NC(=O)N4CC(c5cccnc5)C4)cc3)C2)CCCCC1 shows IC50 below 20 nM
Output: rule met

====

# target-or-system: NAMPT (Homo sapiens, UniProt P43490)
# assay-notes: Time-Resolved Fluorescence Resonance Energy Transfer (TR-FRET) Binding Assay of NAMPT
# conditions: 6.8 nM NAMPT, 200 nM probe, equilibrated 3 hours, no substrates
Kindly supply the reported pIC50 values for the records listed here.
When answering, recall that pIC50 equals minus log10 of the concentration in mol/L, and write that number alone.

Reported pIC50 ( O=C(Nc1ccc(C2CN(C(=O)c3ccco3)C2)cc1)N1CC(c2cccnc2)C1 [Example 224] ) = 7.59

Reported pIC50 ( Cc1ccc(C(=O)N2CCC(c3ccc(NC(=O)N4CC(c5cccnc5)C4)cc3)CC2)s1 [Example 189] ) = 7.65

Reported pIC50 ( O=C(Nc1ccc(O[C@H]2CCN(C(=O)c3ccccc3)C2)cc1)N1CC(c2cccnc2)C1 [Example 95] ) = 7.10

Reported pIC50 ( O=C(Nc1ccc(O[C@H]2CCN(C(=O)[C@@H]3CCCO3)C2)cc1)N1CC(c2cccnc2)C1 [Example 90] ) = 6.39

Reported pIC50 ( CCC(=O)N1CCC(c2ccc(NC(=O)N3CC(c4cccnc4)C3)cc2)CC1 [Example 192] ) = 7.64

Reported pIC50 ( CC(C)(C)OC(=O)N1CC[C@@H](Oc2ccc(NC(=O)N3CC(c4cccnc4)C3)cc2)C1 [Example 60] ) = 7.26

Reported pIC50 ( CC1(C(=O)N2CCC(c3ccc(NC(=O)N4CC(c5cccnc5)C4)cc3)C2)CCCCC1 (centres unmarked) [Example 276] ) = 7.91

Reported pIC50 ( CC(C)(C)C(=O)N1CCC(c2ccc(NC(=O)N3CC(c4cccnc4)C3)cc2)C1 (centres unmarked) [Example 282] ) = 7.58

Reported pIC50 ( CCCC(=O)N1CCC(Oc2ccc(NC(=O)N3CC(c4cccnc4)C3)cc2)CC1 [Example 43] ) = 7.63

Reported pIC50 ( O=C(Nc1ccc(OC2CN(C(=O)c3ccsc3)C2)cc1)N1CC(c2cccnc2)C1 [Example 146] ) = 7.82

Reported pIC50 ( O=C(CN1CCCC1)N1CC(Oc2ccc(NC(=O)N3CC(c4cccnc4)C3)cc2)C1 [Example 155] ) = 6.40

Reported pIC50 ( O=C(CN1CCCC1)N1CCC(c2ccc(NC(=O)N3CC(c4cccnc4)C3)cc2)CC1 [Example 194] ) = 6.61

Reported pIC50 ( O=C1CC[C@@H](C(=O)N2CC[C@@H](Oc3ccc(NC(=O)N4CC(c5cccnc5)C4)cc3)C2)N1 [Example 313] ) = 6.43

Reported pIC50 ( CC(C)CCN1CCC(c2ccc(NC(=O)N3CC(c4cccnc4)C3)cc2)CC1 [Example 236] ) = 6.18

====

# target-or-system: NAMPT (Homo sapiens)
# assay-notes: TR-FRET Binding Assay of NAMPT with PRPP
# conditions: 2 nM NAMPT, 2 nM probe, 200 µM PRPP and 2.5 mM ATP, equilibrated 16 hours
Kindly supply the reported pIC50 values for the records listed here.
When answering, recall that pIC50 equals minus log10 of the concentration in mol/L, and write that number alone.

// returns pIC50 for CC(C)C(C)C(=O)N1CCC(c2ccc(NC(=O)N3CC(c4cccnc4)C3)cc2)C1 (centres unmarked) with NAMPT (Homo sapiens); value = 9.61

// returns pIC50 for O=C(Nc1ccc(C2=CCN(C(=O)C3CC3)CC2)cc1)N1CC(c2cccnc2)C1 with NAMPT (Homo sapiens); value = 9.44

// returns pIC50 for N#Cc1ccc(NC(=O)N2CC(c3cccnc3)C2)cc1 with NAMPT (Homo sapiens); value = 9.75

// returns pIC50 for O=C(CC1CCCCC1)N1CC(Oc2ccc(NC(=O)N3CC(c4cccnc4)C3)cc2)C1 with NAMPT (Homo sapiens); value = 9.22

// returns pIC50 for CC1(C(=O)N2CCC(c3ccc(NC(=O)N4CC(c5cccnc5)C4)cc3)CC2)CC1 with NAMPT (Homo sapiens); value = 9.61

// returns pIC50 for CC(C)CCC(=O)N1CC(c2ccc(NC(=O)N3CC(c4cccnc4)C3)cc2)C1 with NAMPT (Homo sapiens); value = 9.50

// returns pIC50 for O=C(Nc1ccc(C2=CCN(C(=O)[C@H]3CCCO3)CC2)cc1)N1CC(c2cccnc2)C1 with NAMPT (Homo sapiens); value = 9.60

// returns pIC50 for O=C(Nc1ccc(OC2CN(C(=O)c3cncs3)C2)cc1)N1CC(c2cccnc2)C1 with NAMPT (Homo sapiens); value = 9.50

// returns pIC50 for CCC(C)CC(=O)N1CCC(c2ccc(NC(=O)N3CC(c4cccnc4)C3)cc2)C1 (centres unmarked) with NAMPT (Homo sapiens); value = 9.34

// returns pIC50 for CC1CC1C(=O)N1CCC(c2ccc(NC(=O)N3CC(c4cccnc4)C3)cc2)CC1 (centres unmarked) with NAMPT (Homo sapiens); value = 9.50

// returns pIC50 for CC1(C(=O)N2CCC(c3ccc(NC(=O)N4CC(c5cccnc5)C4)cc3)CC2)CCCCC1 with NAMPT (Homo sapiens); value = 9.59

// returns pIC50 for O=C(Nc1ccc(C2CN(C(=O)[C@H]3CCCO3)C2)cc1)N1CC(c2cccnc2)C1 with NAMPT (Homo sapiens); value = 9.54

// returns pIC50 for CC(C)(C)CC(=O)N1CCC(c2ccc(NC(=O)N3CC(c4cccnc4)C3)cc2)CC1 with NAMPT (Homo sapiens); value = 9.44

// returns pIC50 for O=C(Nc1ccc(OC2CCN(C(=O)[C@@H]3CCCO3)CC2)cc1)N1CC(c2cccnc2)C1 with NAMPT (Homo sapiens); value = 9.48

// returns pIC50 for CC1CC1C(=O)N1CCC(Oc2ccc(NC(=O)N3CC(c4cccnc4)C3)cc2)CC1 (centres unmarked) with NAMPT (Homo sapiens); value = 9.31

// returns pIC50 for CCCCC(=O)N1CCC(c2ccc(NC(=O)N3CC(c4cccnc4)C3)cc2)CC1 with NAMPT (Homo sapiens); value = 9.53

// returns pIC50 for O=C(CC1CCCC1)N1CC(c2ccc(NC(=O)N3CC(c4cccnc4)C3)cc2)C1 with NAMPT (Homo sapiens); value = 9.50

====

# target-or-system: NAMPT (Homo sapiens, UniProt P43490)
# assay-notes: Time-Resolved Fluorescence Resonance Energy Transfer (TR-FRET) Binding Assay of NAMPT
# conditions: 6.8 nM NAMPT, 200 nM probe, equilibrated 3 hours, no substrates
pIC50: −log10 of the molar value.
Where pIC50 equals or exceeds 7, the correct label is satisfied; where it does not, the label is not satisfied.

Task: Hi team, for CCC(CC)CN1CC(c2ccc(NC(=O)N3CC(c4cccnc4)C3)cc2)C1 , is the recorded pIC50 at or above 7?
Output: not satisfied

Task: Hi team, for CC(C)(C)CN1CC(c2ccc(NC(=O)N3CC(c4cccnc4)C3)cc2)C1 , is the recorded pIC50 at or above 7?
Output: not satisfied

Task: Hi team, for CC(C)CCC(=O)N1CCC(Oc2ccc(NC(=O)N3CC(c4cccnc4)C3)cc2)CC1 , is the recorded pIC50 at or above 7?
Output: satisfied

Task: Hi team, for O=C(Nc1ccc(C2CCN(C(=O)c3ccco3)CC2)cc1)N1CC(c2cccnc2)C1 , is the recorded pIC50 at or above 7?
Output: satisfied

Task: Hi team, for O=C(Nc1ccc(C2CN(C(=O)C3CC3)C2)cc1)N1CC(c2cccnc2)C1 , is the recorded pIC50 at or above 7?
Output: not satisfied

Task: Hi team, for O=C(CCC(F)(F)F)N1CCC(c2ccc(NC(=O)N3CC(c4cccnc4)C3)cc2)C1 (centres unmarked) , is the recorded pIC50 at or above 7?
Output: satisfied

Task: Hi team, for CC(C)CN1CCC(c2ccc(NC(=O)N3CC(c4cccnc4)C3)cc2)CC1 , is the recorded pIC50 at or above 7?
Output: not satisfied

Task: Hi team, for O=C(Nc1ccc(OC2CN(C(=O)[C@@H]3CCCO3)C2)cc1)N1CC(c2cccnc2)C1 , is the recorded pIC50 at or above 7?
Output: satisfied

Task: Hi team, for O=C(Nc1ccc(C2=CCN(C(=O)[C@@H]3CCCO3)CC2)cc1)N1CC(c2cccnc2)C1 , is the recorded pIC50 at or above 7?
Output: satisfied

Task: Hi team, for CC1CC1C(=O)N1CCC(c2ccc(NC(=O)N3CC(c4cccnc4)C3)cc2)CC1 (centres unmarked) , is the recorded pIC50 at or above 7?
Output: satisfied

Task: Hi team, for CC(C)(C)C(=O)N1CC(c2ccc(NC(=O)N3CC(c4cccnc4)C3)cc2)C1 , is the recorded pIC50 at or above 7?
Output: satisfied

Task: Hi team, for O=C(Nc1ccc(C2CCN(C(=O)c3ccco3)C2)cc1)N1CC(c2cccnc2)C1 (centres unmarked) , is the recorded pIC50 at or above 7?
Output: satisfied

Task: Hi team, for COCCOCC(=O)N1CC[C@@H](Oc2ccc(NC(=O)N3CC(c4cccnc4)C3)cc2)C1 , is the recorded pIC50 at or above 7?
Output: not satisfied

Task: Hi team, for COC(=O)c1ccc(NC(=O)N2CC(c3cccnc3)C2)cc1 , is the recorded pIC50 at or above 7?
Output: not satisfied
